- test.target: Kappa-type opioid receptor (Homo sapiens, UniProt P41145)
- Sequence (P41145 whole entry): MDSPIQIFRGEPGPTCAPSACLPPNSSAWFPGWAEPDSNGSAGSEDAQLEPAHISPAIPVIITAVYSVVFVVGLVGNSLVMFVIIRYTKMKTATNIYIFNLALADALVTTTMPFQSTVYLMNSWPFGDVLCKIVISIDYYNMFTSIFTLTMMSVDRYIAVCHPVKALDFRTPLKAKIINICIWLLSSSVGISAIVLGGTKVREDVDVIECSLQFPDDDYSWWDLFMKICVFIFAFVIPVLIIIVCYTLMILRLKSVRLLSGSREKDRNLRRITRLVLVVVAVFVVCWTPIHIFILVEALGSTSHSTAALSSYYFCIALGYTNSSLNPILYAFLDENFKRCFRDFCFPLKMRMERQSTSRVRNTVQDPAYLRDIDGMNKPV
- measurement.protocol: Agonist activity at kappa opioid receptor expressed in HEK293 cells by [35S]GTPgammaS binding assay
measurement.label: EC50 (µM)
Quick reminder: number only, in µM, skip the unit.

Exercise: Request the reported EC50 associated with "COC(=O)[C@@H]1C[C@H](OC(=O)[C@@H](N)C(C)C)C(=O)[C@H]2[C@@]1(C)CC[C@H]1C(=O)O[C@H](c3ccoc3)C[C@]21C"
Solution: 0.213

----------
- test.target: Kappa-type opioid receptor (Homo sapiens, UniProt P41145)
- measurement.protocol: Displacement of [3H]diprenorphine from kappa opioid receptor expressed in HEK293 cells relative to salvinorin A
- Type: cell-based
- Parameters: concentration or dose not given beside the values
measurement.label: Activity (%)
Quick reminder: number only, in %, skip the unit.

Before answering, review these 3 worked examples.
COC(=O)[C@@H]1C[C@H](OC(=O)[C@@H](NC(=O)OCC2c3ccccc3-c3ccccc32)C(C)C)C(=O)[C@H]2[C@@]1(C)CC[C@H]1C(=O)O[C@H](c3ccoc3)C[C@]21C : 0
COC(=O)[C@@H]1C[C@H](OC(=O)[C@@H](NC(=O)OCC2c3ccccc3-c3ccccc32)[C@H](C)OC(C)(C)C)C(=O)[C@H]2[C@@]1(C)CC[C@H]1C(=O)O[C@H](c3ccoc3)C[C@]21C : 12
COC(=O)[C@@H]1C[C@H](OC(=O)[C@H](C)N)C(=O)[C@H]2[C@@]1(C)CC[C@H]1C(=O)O[C@H](c3ccoc3)C[C@]21C : 0

Exercise: Request the reported Activity associated with "COC(=O)[C@@H]1C[C@H](OC(=O)[C@H](C)NC(=O)OCC2c3ccccc3-c3ccccc32)C(=O)[C@H]2[C@@]1(C)CC[C@H]1C(=O)O[C@H](c3ccoc3)C[C@]21C"
Solution: 0

Exercise: Try this compound next: "COC(=O)[C@@H]1C[C@H](OC(=O)CCCN)C(=O)[C@H]2[C@@]1(C)CC[C@H]1C(=O)O[C@H](c3ccoc3)C[C@]21C"
Solution: 0

Exercise: Try this compound next: "COC(=O)[C@@H]1C[C@H](OC(=O)[C@H](Cc2ccccc2)NC(=O)OCC2c3ccccc3-c3ccccc32)C(=O)[C@H]2[C@@]1(C)CC[C@H]1C(=O)O[C@H](c3ccoc3)C[C@]21C"
Solution: 34
